Value source: the SangsterLogP compilation

- assay remarks: method code SF-HPLC, from DOI: 10.1021/js980008v, PMID: 9758683
measured quantity: logP
Reply with just the number.

Problem: Give recorded logP. `CCC(=O)OCN1C(=O)NC(c2ccccc2)(c2ccccc2)C1=O`
Solution: 3.34

###

measured quantity: logP
Returns: the value as a bare number; no unit string appended.

Problem: Quickly give me recorded logP for `CCCCCC`
Solution: 3.9

###

measured quantity: logP
Form rule: numeric answer, no unit written next to it.

Problem: Give the reported value of logP for this record: `COP(=S)(CN1C(=O)c2ccccc2C1=O)OC`
Solution: 2.83

###

measured quantity: logP
Enter the number alone.

Problem: # return recorded logP for entry `O=C(O)c1ccc(O)cc1O`
Solution: 1.41

###

measured quantity: logP
Please state the value as a number alone, without comment.

- CC(C)(C(=O)O)C(=O)O: 0.26
- CC(=O)OCCOC(C)=O: 0.1
- CCN(CC)CCO: 0.31

We now examine a further compound.
Problem: Look up and state reported logP for `Nc1cccc(N)c1`
Solution: 0
